Below: a set of entries, each annotated with reported Relative activity (%).
Target: T1, hCD112R mFC recombinant protein (human; murine, UniProt Q6DKI7 41-160)
T1 construct: range 41-160; expressed in 293E cells; also called hCD112R ECD mFC; hCD112R-ECD-mFC; not shown: murine IgG2a Fc domain (MX2-mFc vector)
T1 sequence (looked up): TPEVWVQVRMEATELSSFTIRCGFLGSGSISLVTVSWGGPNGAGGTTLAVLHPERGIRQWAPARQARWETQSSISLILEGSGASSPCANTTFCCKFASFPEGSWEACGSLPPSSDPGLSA
Test: FACS competition, hCD112R mFc on CHO CD112 cells; ratio Ref/antibody
Please respond with the number in % and leave the unit unwritten.

Known Relative activity (%) results, listed for orientation:
binder="Chi-71 (antibody, V domains shown, chimeric) VH: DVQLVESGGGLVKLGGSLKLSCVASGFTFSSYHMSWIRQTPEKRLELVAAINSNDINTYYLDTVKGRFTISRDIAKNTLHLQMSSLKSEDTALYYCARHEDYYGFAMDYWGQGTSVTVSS VL: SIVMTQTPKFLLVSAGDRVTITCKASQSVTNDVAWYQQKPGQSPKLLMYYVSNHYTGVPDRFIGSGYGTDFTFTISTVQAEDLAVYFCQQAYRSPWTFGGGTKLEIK" unit=% assay_value=144
binder="Chi-61 (antibody, V domains shown, chimeric) VH: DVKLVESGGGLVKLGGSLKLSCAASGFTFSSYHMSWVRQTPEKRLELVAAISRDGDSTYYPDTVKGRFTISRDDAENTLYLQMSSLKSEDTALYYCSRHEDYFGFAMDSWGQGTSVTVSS VL: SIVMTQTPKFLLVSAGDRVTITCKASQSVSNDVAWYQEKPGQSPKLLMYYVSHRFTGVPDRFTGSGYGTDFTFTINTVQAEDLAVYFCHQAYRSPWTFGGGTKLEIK" unit=% assay_value=110
binder="Chi-70 (antibody, V domains shown, chimeric) VH: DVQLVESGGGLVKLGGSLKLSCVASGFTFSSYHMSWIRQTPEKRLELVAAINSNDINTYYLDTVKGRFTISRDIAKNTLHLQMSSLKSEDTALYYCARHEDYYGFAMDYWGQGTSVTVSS VL: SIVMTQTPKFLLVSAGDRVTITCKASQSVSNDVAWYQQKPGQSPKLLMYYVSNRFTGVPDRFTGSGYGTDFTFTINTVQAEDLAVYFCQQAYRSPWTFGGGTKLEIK" unit=% assay_value=150
binder="Chi-46 (antibody, V domains shown, chimeric) VH: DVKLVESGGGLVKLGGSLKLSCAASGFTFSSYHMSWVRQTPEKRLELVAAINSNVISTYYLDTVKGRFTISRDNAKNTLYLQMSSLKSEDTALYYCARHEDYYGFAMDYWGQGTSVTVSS VL: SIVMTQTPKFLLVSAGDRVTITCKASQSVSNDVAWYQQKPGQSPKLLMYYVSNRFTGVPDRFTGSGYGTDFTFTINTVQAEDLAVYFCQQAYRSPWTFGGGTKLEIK" unit=% assay_value=132

Now look at this entry.
So for Chi-62 (antibody, V domains shown, chimeric) VH: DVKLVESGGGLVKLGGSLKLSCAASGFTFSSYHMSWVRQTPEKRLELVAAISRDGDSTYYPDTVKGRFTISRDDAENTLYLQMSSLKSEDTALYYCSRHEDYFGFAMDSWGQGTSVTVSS VL: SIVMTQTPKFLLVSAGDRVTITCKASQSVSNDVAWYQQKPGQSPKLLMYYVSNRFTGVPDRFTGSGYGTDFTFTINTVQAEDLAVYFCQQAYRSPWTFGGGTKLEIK , the logged Relative activity (%) turned out to be 110
